molecular target: human GLP-1R (SNAP-GLP-1R expressed in HEK293 cells) (human) (UniProt P43220); assay: cell-based or functional assay
Sequence (P43220 24-463): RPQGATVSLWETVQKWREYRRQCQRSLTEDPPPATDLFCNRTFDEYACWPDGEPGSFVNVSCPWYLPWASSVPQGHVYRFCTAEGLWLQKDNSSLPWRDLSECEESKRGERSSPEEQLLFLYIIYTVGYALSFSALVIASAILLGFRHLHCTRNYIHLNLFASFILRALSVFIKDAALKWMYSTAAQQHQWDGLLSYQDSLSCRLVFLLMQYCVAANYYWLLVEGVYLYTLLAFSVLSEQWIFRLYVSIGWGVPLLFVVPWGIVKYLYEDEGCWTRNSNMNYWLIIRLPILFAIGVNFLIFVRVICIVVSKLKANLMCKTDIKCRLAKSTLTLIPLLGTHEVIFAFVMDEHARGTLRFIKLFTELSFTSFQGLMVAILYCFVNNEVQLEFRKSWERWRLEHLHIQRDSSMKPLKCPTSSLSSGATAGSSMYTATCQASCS
Non-standard residues stand in square brackets, D forms with d. No end group written: not given here. αMeL = CC(C)C[C@](C)(N)C(=O)O; Aib = CC(C)(N)C(=O)O

binder	Internalization % TOP
YXQGTFTSDFSXXLDKKAQXAFIEYLLEAGPSSGHPPPSGX (L-ornithine at residue 12; synthetic construct; SITE 2: note = 2-Aminoisobutyric Acid; SITE 12: note = L-ornithine; SITE 13: note = alpha-methyl-leucine; SITE 17: note = Lysine is chemically modified through conjugation of the epsilon-amino group of the Lysine side chain with (2-[2-(2-Amino-ethoxy)-ethoxy]-acetyl)2-(gamma-Glu)) [Example 256]	43.5%
YXQGTFTSDYSRXLDKKAQXAFIEYLLEGGESSGAPPPSGS (synthetic construct; SITE 2: note = 2-Aminoisobutyric Acid; SITE 13: note = alpha-methyl-leucine; SITE 17: note = Lysine is chemically modified through conjugation of the epsilon-amino group of the Lysine side chain with (2-[2-(2-Amino-ethoxy)-ethoxy]-acetyl)-(gamma-Glu)-CO-(CH2) 16-CO2H; SITE 20: n) [Example 361]	73%
YXQGTFTSDXSQXLDXKAQXQFIEXLIEGGPSSGEPPPSGSEE (non-natural residues, lipidated Lys, C-terminal amide; synthetic construct; SITE 2: note = 2-Aminoisobutyric Acid; SITE 10: note = 3-(4-Pyridyl)-L-alanine; SITE 13: note = alpha-methyl-leucine; SITE 16: note = L-ornithine; SITE 17: note = Lysine is chemically modified through conjugation of the epsilon-amino group of the Lysine side chain with (gamma-Gl)) [Example 1026]	80%
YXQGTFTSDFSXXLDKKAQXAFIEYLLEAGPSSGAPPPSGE (synthetic construct; SITE 2: note = 2-Aminoisobutyric Acid; SITE 12: note = L-ornithine; SITE 13: note = alpha-methyl-leucine; SITE 17: note = Lysine is chemically modified through conjugation of the epsilon-amino group of the Lysine side chain with (2-[2-(2-Amino-ethoxy)-ethoxy]-acetyl)-(gamma-Glu)) [Example 129]	40.6%
Y[Aib]QGTFTSDYSI[αMeL]LDKQAAKQFVEWLLA[Aib]GPSSGEPPPSEG (not fully specified (residue 20)) [Example 329]	91.1%
YXQGTFTSDXSKXLDKKAQXAFIEYLIEXGESSGAPPPSGS (synthetic construct; SITE 2: note = 2-Aminoisobutyric Acid; SITE 10: note = 3-(4-Pyridyl)-L-alanine; SITE 13: note = alpha-methyl-leucine; SITE 17: note = Lysine is chemically modified through conjugation of the epsilon-amino group of the Lysine side chain with (2-[2-(2-Amino-ethoxy)-ethoxy]-acetyl)) [Example 280]	74.9%
